Sourced from patent US9242970B2

Molecular target: human orexin-2 receptor (Homo sapiens (Human), UniProt O43614)
Sequence (O43614 whole entry): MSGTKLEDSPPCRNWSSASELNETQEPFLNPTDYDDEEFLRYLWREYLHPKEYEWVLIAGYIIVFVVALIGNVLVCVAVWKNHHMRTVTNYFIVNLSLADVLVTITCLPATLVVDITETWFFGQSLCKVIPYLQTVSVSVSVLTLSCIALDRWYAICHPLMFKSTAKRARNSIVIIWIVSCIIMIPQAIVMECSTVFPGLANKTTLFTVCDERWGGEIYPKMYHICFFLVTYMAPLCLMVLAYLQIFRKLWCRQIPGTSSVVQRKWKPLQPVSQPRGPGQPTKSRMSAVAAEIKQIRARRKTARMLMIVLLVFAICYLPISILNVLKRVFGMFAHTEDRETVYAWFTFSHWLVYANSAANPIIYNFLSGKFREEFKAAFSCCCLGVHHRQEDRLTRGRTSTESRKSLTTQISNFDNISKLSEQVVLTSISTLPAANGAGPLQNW
Test: In vitro assay: intracellular calcium measurements (FLIPR), antagonistic activity
Assay type: cell-based
Conditions: CHO cells, 3 nM orexin-A, compound incubation time of 10 min; marked values are geometric means of n = 2-6; read-out: IC50 OX2
Recorded measurements of log10 IC50, one per entry
Experimental readout: log10 IC50 (log10 of the value in nM)

# Compound, log10 IC50
data = [
    ("Cc1ccc(F)c(C2CCCC(=O)N2Cc2ccc(OC(F)(F)F)cc2)c1F (centres unmarked)", 3.39),
    ("COc1cccc(OC)c1C1CCCC(=O)N1Cc1ccc(-n2cccc2)cc1 (centres unmarked)", 2.28),
    ("COc1ccc(CN2C(=O)CCCC2c2c(OC)cccc2OC)cc1 (centres unmarked)", 2.60),
    ("COc1cc(Cl)cc(OC)c1C1CCCC(=O)N1Cc1ccc(OC(F)(F)F)cc1 (centres unmarked)", 1.45),
    ("COc1cccc(OC)c1C1CCCC(=O)N1Cc1ccc(Oc2ccccc2)nc1 (centres unmarked)", 1.46),
]
